log2 fold change of degron read counts values, listed per item
TARGET_OR_TEST_SYSTEM: T1, CRBN, Q96SW2;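 also: pooled lentiviral library of zinc finger degron-EGFP fusions in mCherry-positive Jurkat cells, FACS-sorted after compound exposure, with degron abundance counted by next-generation sequencing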
T1 chain: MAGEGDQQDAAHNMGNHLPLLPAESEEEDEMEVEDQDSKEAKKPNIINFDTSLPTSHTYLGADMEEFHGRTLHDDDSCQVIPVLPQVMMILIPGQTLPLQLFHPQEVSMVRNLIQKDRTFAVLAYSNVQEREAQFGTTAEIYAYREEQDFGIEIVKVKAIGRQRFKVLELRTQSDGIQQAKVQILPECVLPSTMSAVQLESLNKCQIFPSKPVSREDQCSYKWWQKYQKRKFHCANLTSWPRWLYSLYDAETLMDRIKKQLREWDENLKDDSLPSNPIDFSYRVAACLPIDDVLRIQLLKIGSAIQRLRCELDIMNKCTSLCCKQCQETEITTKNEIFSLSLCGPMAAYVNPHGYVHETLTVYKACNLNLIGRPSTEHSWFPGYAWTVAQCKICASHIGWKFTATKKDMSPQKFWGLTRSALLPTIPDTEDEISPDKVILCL
EXPERIMENTAL_PROTOCOL: log2 fold change of degron read counts, EGFP-low vs EGFP+ sorted cells (limma voom), compound-induced degradation; higher = more compound-induced degradation of the degron-EGFP fusion; degrons are variants of IKZF1/3 zinc finger 2; compound dose not given here
TEST_PARAMETERS: Jurkat; 18 h; compound: thalidomide
Whole data set: some 8,300 sequences, median “log2 fold change of degron read counts, EGFP-low vs EGFP+ sorted cells (limma voom), compound-induced degradation” near -1.1, cut for the highest 2% near 3.2. Many of the other results were omitted from the sample, so the highest values are more common in it than they were.
Give a plain numeric answer without units written out.

Need log2 fold change of degron read counts, item FMCEICGACFTQKGNLLRHIKL [46F_47M_49E_50I_52G_53A_54C_55F_67L_, Q9UKT9]
1.09

Entry to check: FKCEICGACFTQKGNLLRHIKL [46F_47K_49E_50I_52G_53A_54C_55F_67L_, Q9UKT9]
-0.785

Entry to check: FDCEICGACFTQKGNLLRHIKL [46F_47D_49E_50I_52G_53A_54C_55F_67L_, Q9UKT9]
0.633

Entry to check: FDCPVCGAHFTQKGNLLRHIKL [46F_47D_49P_50V_52G_53A_54H_55F_67L_, Q9UKT9]
1.19

Entry to check: FGCPVCGAHFTQKGNLLRHIKL [46F_47G_49P_50V_52G_53A_54H_55F_67L_, Q9UKT9]
0.174

Entry to check: FYCPVCGAHFTQKGNLLRHIKL [46F_47Y_49P_50V_52G_53A_54H_55F_67L_, Q9UKT9]
0.928

Entry to check: FACPVCGAHFTQKGNLLRHIKL [46F_47A_49P_50V_52G_53A_54H_55F_67L_, Q9UKT9]
0.221
